# Test system: Plasmodium berghei
# assayComment: Luciferase/luciferin-expressing antifolate-resistant parasites were used to infect a culture of HepG2 cells that were pre-incubated with compounds. Infected hepatocytes emit light due to the luciferase reaction. Assay results are presented as the percent inhibition of light emission compared to control. […]
# Assay type: functional
# conditionLabel: sporozoite, FFLUC_HILL_SLOPE 7.85, FFLUC_R_SQUARED 0.0779, PBLUC_HILL_SLOPE 15.6, PBLUC_R_SQUARED 0.278, read-out: LUCIFERASE INFECTION ASSAY - IC50
readoutType: IC50 (µM)
Give bare numbers, in µM.

Noted for Cc1sc2nc(-c3cccnc3)nc(N3CCOCC3)c2c1-c1ccccc1 : its IC50 reads 8.61

----------
# Tested on: Plasmodium berghei
# assayComment: Luciferase/luciferin-expressing antifolate-resistant parasites were used to infect a culture of HepG2 cells that were pre-incubated with compounds. Infected hepatocytes emit light due to the luciferase reaction. Assay results are presented as the percent inhibition of light emission compared to control. […]
# Format: functional
# conditionLabel: sporozoite, FFLUC_HILL_SLOPE 2.28, FFLUC_R_SQUARED 0.234, read-out: LUCIFERASE INFECTION ASSAY - IC50
readoutType: IC50

Noted for Cc1onc(-c2c(Cl)cccc2Cl)c1NC(=O)Nc1cscc1S(=O)(=O)C(C)C : its IC50 reads > 6.96 µM

----------
# Test system: Plasmodium berghei
# assayComment: Luciferase/luciferin-expressing antifolate-resistant parasites were used to infect a culture of HepG2 cells that were pre-incubated with compounds. Infected hepatocytes emit light due to the luciferase reaction. Assay results are presented as the percent inhibition of light emission compared to control. […]
# Format: functional
# conditionLabel: sporozoite, PBLUC_HILL_SLOPE 1.98, PBLUC_R_SQUARED 0.132, read-out: LUCIFERASE INFECTION ASSAY - IC50
readoutType: pIC50
One number for each entry, as −log10 of the molar value.

Noted for CN(c1ccccc1)S(=O)(=O)c1ccc(NC(=O)c2cccs2)cc1 : its pIC50 reads 5.56

----------
# System: Plasmodium berghei
# assayComment: Luciferase/luciferin-expressing antifolate-resistant parasites were used to infect a culture of HepG2 cells that were pre-incubated with compounds. Infected hepatocytes emit light due to the luciferase reaction. Assay results are presented as the percent inhibition of light emission compared to control. […]
# Format: functional
# conditionLabel: sporozoite, PBLUC_HILL_SLOPE 4.17, PBLUC_R_SQUARED 0.3, read-out: LUCIFERASE INFECTION ASSAY - IC50
readoutType: IC50
Could you write the number and then its unit?

Reading of IC50 for CCOc1ccc(OCC)c(NC(=O)/C=C/c2ccc(OCc3cn4ccccc4n3)cc2)c1 with Plasmodium berghei: 8.87 µM

----------
# System: Plasmodium berghei
# assayComment: Luciferase/luciferin-expressing antifolate-resistant parasites were used to infect a culture of HepG2 cells that were pre-incubated with compounds. Infected hepatocytes emit light due to the luciferase reaction. Assay results are presented as the percent inhibition of light emission compared to control. […]
# Assay type: functional
# conditionLabel: sporozoite, FFLUC_HILL_SLOPE 1.28, FFLUC_R_SQUARED 0.893, PBLUC_HILL_SLOPE 0.747, PBLUC_R_SQUARED 0.679, read-out: LUCIFERASE INFECTION ASSAY - IC50
readoutType: IC50 (nM)
Numbers only, in nM.

Reading of IC50 for Nc1ccc(-c2cnn3c(N4CCOCC4)ccnc23)cc1 with Plasmodium berghei: 462

----------
# Tested on: Plasmodium berghei
# assayComment: Luciferase/luciferin-expressing antifolate-resistant parasites were used to infect a culture of HepG2 cells that were pre-incubated with compounds. Infected hepatocytes emit light due to the luciferase reaction. Assay results are presented as the percent inhibition of light emission compared to control. […]
# Assay type: functional
# conditionLabel: sporozoite, PBLUC_HILL_SLOPE 0.732, PBLUC_R_SQUARED 0.239, read-out: LUCIFERASE INFECTION ASSAY - IC50
readoutType: pIC50
One number for each entry, as −log10 of the molar value.

Reading of pIC50 for O=C(Nc1ccncc1)c1cc([N+](=O)[O-])ccc1Sc1ccccc1 with Plasmodium berghei: 5.42

----------
# Test system: Plasmodium berghei
# assayComment: Luciferase/luciferin-expressing antifolate-resistant parasites were used to infect a culture of HepG2 cells that were pre-incubated with compounds. Infected hepatocytes emit light due to the luciferase reaction. Assay results are presented as the percent inhibition of light emission compared to control. […]
# Type: functional
# conditionLabel: sporozoite, PBLUC_HILL_SLOPE 1.51, PBLUC_R_SQUARED 0.457, read-out: LUCIFERASE INFECTION ASSAY - IC50
readoutType: IC50
Could you write the number and then its unit?

Noted for CC(Sc1nc2ccccc2c(=O)n1CCN(C(C)C)C(C)C)C(N)=O (stereo unspecified) : its IC50 reads 6.73 µM

----------
# Tested on: Plasmodium berghei
# assayComment: Luciferase/luciferin-expressing antifolate-resistant parasites were used to infect a culture of HepG2 cells that were pre-incubated with compounds. Infected hepatocytes emit light due to the luciferase reaction. Assay results are presented as the percent inhibition of light emission compared to control. […]
# Format: functional
# conditionLabel: sporozoite, FFLUC_HILL_SLOPE 16.5, FFLUC_R_SQUARED 0.199, HEPG2TOX_HILL_SLOPE 9.38, HEPG2TOX_R_SQUARED 0.316, read-out: LUCIFERASE INFECTION ASSAY - IC50
readoutType: IC50

Noted for COc1ccc(OCc2cc(C(=O)NCc3ccccc3)c(C)o2)cc1 : its IC50 reads > 10 µM

----------
# System: Plasmodium berghei
# assayComment: Luciferase/luciferin-expressing antifolate-resistant parasites were used to infect a culture of HepG2 cells that were pre-incubated with compounds. Infected hepatocytes emit light due to the luciferase reaction. Assay results are presented as the percent inhibition of light emission compared to control. […]
# Type: functional
# conditionLabel: sporozoite, HEPG2TOX_HILL_SLOPE 0.706, HEPG2TOX_R_SQUARED 0.938, PBLUC_HILL_SLOPE 2.17, PBLUC_R_SQUARED 0.421, read-out: LUCIFERASE INFECTION ASSAY - IC50
readoutType: IC50 (nM)
Give bare numbers, in nM.

Reading of IC50 for FC(F)(F)Oc1cccc(-c2nnc3ccc(-c4cccc5ncccc45)cn23)c1 with Plasmodium berghei: 928

----------
# Test system: Plasmodium berghei
# assayComment: Luciferase/luciferin-expressing antifolate-resistant parasites were used to infect a culture of HepG2 cells that were pre-incubated with compounds. Infected hepatocytes emit light due to the luciferase reaction. Assay results are presented as the percent inhibition of light emission compared to control. […]
# Format: functional
# conditionLabel: sporozoite, HEPG2TOX_HILL_SLOPE 0.427, HEPG2TOX_R_SQUARED 0.871, PBLUC_HILL_SLOPE 2.47, PBLUC_R_SQUARED 0.694, read-out: LUCIFERASE INFECTION ASSAY - IC50
readoutType: IC50 (µM)
Answers are plain numbers, in µM.

Noted for COc1ccc(-c2cnc3ccc(NCc4ccccn4)nn23)cc1OC : its IC50 reads 2.41

----------
# Tested on: Plasmodium berghei
# assayComment: Luciferase/luciferin-expressing antifolate-resistant parasites were used to infect a culture of HepG2 cells that were pre-incubated with compounds. Infected hepatocytes emit light due to the luciferase reaction. Assay results are presented as the percent inhibition of light emission compared to control. […]
# Type: functional
# conditionLabel: sporozoite, HEPG2TOX_HILL_SLOPE 7.42, HEPG2TOX_R_SQUARED 0.403, read-out: LUCIFERASE INFECTION ASSAY - IC50
pIC50: −log10 of the molar value.
readoutType: pIC50

Noted for Cc1ccc(NC(=O)/C=C/c2c(C)nn(CC(C)C)c2Cl)cc1 : its pIC50 reads < 5.00

----------
# Test system: Plasmodium berghei
# assayComment: Luciferase/luciferin-expressing antifolate-resistant parasites were used to infect a culture of HepG2 cells that were pre-incubated with compounds. Infected hepatocytes emit light due to the luciferase reaction. Assay results are presented as the percent inhibition of light emission compared to control. […]
# Assay type: functional
# conditionLabel: sporozoite, PBLUC_HILL_SLOPE 2.86, PBLUC_R_SQUARED 0.337, read-out: LUCIFERASE INFECTION ASSAY - IC50
readoutType: pIC50
One number for each entry, as −log10 of the molar value.

Noted for C#CCSc1nnc(-c2ccc(C(C)(C)C)cc2)n1C : its pIC50 reads 5.56

----------
# Tested on: Plasmodium berghei
# assayComment: Luciferase/luciferin-expressing antifolate-resistant parasites were used to infect a culture of HepG2 cells that were pre-incubated with compounds. Infected hepatocytes emit light due to the luciferase reaction. Assay results are presented as the percent inhibition of light emission compared to control. […]
# Assay type: functional
# conditionLabel: sporozoite, FFLUC_HILL_SLOPE 13, FFLUC_R_SQUARED 0.172, read-out: LUCIFERASE INFECTION ASSAY - IC50
readoutType: IC50

Noted for Cc1cc2occ(CC(=O)N(c3ccc(F)cc3)c3nc4ccccc4s3)c2cc1C(C)C : its IC50 reads > 10 µM
